- System: Botrytis cinerea
- assayRemarks: Direct protectant activity against broad bean grey mould (BCB)
- Assay type: in vivo
- condition: direct protectant foliar spray, 600 ppm, 4 days
readoutKind: disease control rating BCB

- molecule: "CCCN(CC(C)(C)C)C1COC2(CCC(C(C)(C)C)CC2)C1 (stereo not drawn) [Compound 133]"
  result: "0 (less than 50% disease control)"
- molecule: "CN(CC1CCCCC1)C1COC2(CCC(C(C)(C)C)CC2)C1 (stereo not drawn) [Compound 91]"
  result: "1 (about 50-80% disease control)"
- molecule: "CCCCCNC1COC2(CCC(C(C)(C)CC)CC2)C1 (stereo not drawn) [Compound 49]"
  result: "0 (less than 50% disease control)"
- molecule: "CN(C)CCC1COC2(CCC(C(C)(C)C)CC2)C1 (stereo not drawn) [Compound 191]"
  result: "0 (less than 50% disease control)"
- molecule: "CC1(CNC2COC3(CCC(C(C)(C)C)CC3)C2)CCCCC1 (stereo not drawn) [Compound 120]"
  result: "1 (about 50-80% disease control)"
- molecule: "CCCCCCN(C)C1COC2(CCC(C(C)(C)C)CC2)C1 (stereo not drawn) [Compound 14]"
  result: "0 (less than 50% disease control)"
- molecule: "CCC(CC)N(CC)C1COC2(CCC(C(C)(C)C)CC2)C1 (stereo not drawn) [Compound 95]"
  result: "0 (less than 50% disease control)"
- molecule: "CC(C)(C)C1CCC2(CC1)CC(NC1CCCCCC1)CO2 (stereo not drawn) [Compound 104]"
  result: "0 (less than 50% disease control)"
- molecule: "CCCCc1ccc(NC2COC3(CCC(C(C)(C)C)CC3)C2)cc1 (stereo not drawn) [Compound 25]"
  result: "0 (less than 50% disease control)"
